These entries and their values trace back to PubChem BioAssay (NCI).

# Tested on: TK-10 renal
# measurement-protocol: NCI tumour cell line growth inhibition, 48 h
property-label: TGI

Request: Please report the recorded TGI for COc1cc2cc(Oc3ccc(NC(=O)Nc4ccc(Cl)c(C(F)(F)F)c4)cc3)c(C)nc2cc1OCCN1CCCCC1 .
Response: 3.38 µM

Request: Here is the next molecule: c1csc(-c2cscc2-c2ccsc2)c1
Response: > 100 µM

Request: Note, next up: Nc1ncnc2sc(=S)c3c(c12)CCC3
Response: > 100 µM

Request: What about COC(=O)[C@H](Cc1ccccc1)NC(=O)NCCN(CCNC(=O)N[C@@H](Cc1ccccc1)C(=O)OC)C(=O)N[C@@H](Cc1ccccc1)C(=O)OC ?
Response: 37.3 µM

Request: And the next one, O=S1(=O)c2cnccc2NC(=NCc2cccc3ccccc23)N1c1ccccc1 ?
Response: > 100 µM

Request: Item: C[C@H]1[C@H](C)N(Cc2ccccc2)P(=O)(C(O)/C=C/c2ccccc2)N1Cc1ccccc1 (stereo not given in full)
Response: 24.1 µM

Request: Same read-out for O=C(O)C1CC2C3CCC2C1C3=O (stereo not given) ?
Response: > 100 µM

Request: One more molecule: O=c1c2cc(S(=O)(=O)Nc3ccccc3Cl)ccc2ncn1NS(=O)(=O)c1ccc(Br)cc1
Response: > 37.5 µM

Request: Query O=C(O)CS(=O)(=O)C(c1ccccc1)c1ccccc1 next
Response: > 100 µM

Request: Input N#CC(C#N)=CN1CCN(C(=O)c2ccco2)C1=S
Response: 32.7 µM

Request: Proceed to NC(=O)[C@H]1CCN(c2ncnc(N)c2F)C[C@@H]1N1CCC[C@@H](Nc2cc(Cl)cc(C(F)(F)F)c2)C1=O
Response: 39 µM

Request: Likewise for COc1ccc(C(=O)/C=C/c2ccc(Cl)cc2)cc1S(=O)(=O)Nc1c(N)nc(SC)[nH]c1=O ?
Response: 9.44 µM

Request: Note, next up: Nc1ncnc2c1ccn2C1OC2COP(=O)(O)OC2C1O (stereo not given)
Response: 4.8 µM

Request: Input COc1cc2c(cc1OC)-c1[nH]c3ccc(C#N)cc3c1CC(=O)N2
Response: > 100 µM

Request: Okay, and CS(=O)(=O)CC1=Nc2nnc(CCCCCCCc3nnc4n3C(=O)C(CS(C)(=O)=O)=N4)n2C1=O ?
Response: > 100 µM

Request: N#CSc1ncnc2nc[nH]c12 ?
Response: > 100 µM

Request: And the next one, Cc1ccc(NCC2CC/C(=C\c3ccc(Cl)cc3)C2=O)cc1 (stereo not given) ?
Response: 40.6 µM

Request: Please do the same for CCOC(=O)c1ccc(C(=O)OCC)n1-c1cc2cc(c1)CSCc1cc(cc(-n3c(C(=O)OCC)ccc3C(=O)OCC)c1)CSC2 as well.
Response: > 10 µM

Request: What about COc1cc(Br)c(OC)c2c(OC)cc(C)cc12 ?
Response: > 100 µM

Request: Same question for N=C(N)c1nn(C2OC(CO)C(O)C2O)c2nc[nH]c(=O)c12 (stereo not given) please.
Response: 2.17 µM

Request: Would you kindly repeat that for c1ccc(Nc2nnc(CSc3nc(-c4ccccc4)c(-c4ccccc4)[nH]3)s2)cc1 ?
Response: > 100 µM

Request: Also CCN(CC)c1ccc(/C=C/c2cc(C)c3ccccc3n2)cc1 ?
Response: 13.8 µM

Request: Now give it for O=c1[nH]c(=O)n(C2OC(CO)C(O)C(F)C2O)cc1F (stereo not given) too.
Response: > 100 µM

Request: // query: NC(=S)NNC(=O)/C(=C/c1ccc(/C=C(\NC(=O)c2ccccc2)C(=O)NNC(N)=S)cc1)NC(=O)c1ccccc1
Response: > 100 µM

Request: CCOC(=O)CCC(NC(=O)Cc1ccc(Nc2nc3ccccc3nc2-c2ccccc2)cc1)C(=O)OCC (stereo not given) ?
Response: 58.5 µM

Request: Moving on to the next molecule: CCN=C1C=CC(=C(c2ccc(N(C)C)cc2)c2ccc(N(C)C)cc2)c2ccccc21
Response: 1.31 µM

Request: COc1cc(NC(C)=O)c2[nH]c3c(C)cc(NC(C)=O)c(C)c3c2c1 ?
Response: > 100 µM

Request: Could you do the same for COc1ccc(C(=O)/C=C/c2ccc(OCC(=N)N)cc2)cc1OC , please?
Response: > 10 µM

Request: // repeat for NS(=O)(=O)c1cc2c(cc1Cl)NC(C(=O)c1cc(=O)c3ccc(O)cc3o1)=NS2(=O)=O and report
Response: > 100 µM

Request: Another molecule: CCc1nnc(CC)n1NCCCC(=O)O
Response: > 100 µM

Request: Now this one: CCc1ccc(NCc2cc(OC)c(OC)c(OC)c2)cc1
Response: > 100 µM

Request: Also CC1=C(C(=O)Nc2cccc3c2C(=O)NC3=O)CC(C(=O)Nc2cccc3c2C(=O)NC3=O)=C(C)N1 , if possible.
Response: > 100 µM

Request: Also check O=C1C/C(=C/c2ccc(/C=C3/CC(=O)N(c4cccc(Br)c4)C3=O)cc2)C(=O)N1c1cccc(Br)c1
Response: > 100 µM

Request: Queued: Cc1cc(N2CCCCC2)nc(N(CCNc2ccnc3cc(Cl)ccc23)Cc2ccco2)n1
Response: 4.08 µM

Request: Subsequent entry: O=C(CCn1[nH]c(=O)c(Cl)c(Cl)c1=O)NOCCCc1ccccc1
Response: > 100 µM

Request: Next: N#CC(C#N)=Cc1ccc(-c2ccc(-c3nc4ccccc4s3)cc2)o1
Response: 36.9 µM

Request: Continue with COc1cc(/C=C/C(=O)c2sc(-n3nc(-c4ccccc4)cc3-c3ccccc3)nc2C)ccc1O
Response: > 100 µM

Request: Let us now turn to COc1cc2nc(Cl)nc(Nc3cccc(C(=O)/C=C/c4ccccc4)c3)c2cc1OC
Response: 20 µM

Request: What would you report for C/C(=N\N)C(CN(C)C)C(c1ccccc1)c1c(O)c2ccccc2oc1=O (stereo not given) ?
Response: > 100 µM

Request: Next up: CC(=O)OC1c2ccccc2CC2(OC(C)=O)c3ccccc3C12 (stereo not given)
Response: > 100 µM

====

# Tested on: DU-145 prostate
# measurement-protocol: NCI tumour cell line growth inhibition, 48 h; in the data active means GI50 below about 0.43 µM; inactive means the rest
Reply using exactly one outcome from active, inactive

Request: For this molecule, state the assay outcome: CCCN1C(=O)/C(=c2\sc3n(c2=O)C2C(NN=3)N(CC)C(=O)N2CC)c2ccccc21 (stereo not drawn)
Response: active

Request: # repeat for CCN1C(=O)N(CC)C2C1NN=c1s/c(=C3\C(=O)N(C(C)C)c4ccccc43)c(=O)n12 (stereo not drawn)
Response: active

Request: Now give it for Nc1ncnc2sc(=S)c3c(c12)CCC3 too.
Response: inactive

Request: Repeat with O=S(=O)(c1ccc(NC(=S)NCc2cccnc2)cc1)N1CCCCC1
Response: inactive

Request: Can you check COc1cc2cc(Oc3ccc(NC(=O)Nc4ccc(Cl)c(C(F)(F)F)c4)cc3)c(C)nc2cc1OCCN1CCCCC1 next?
Response: inactive

Request: Cool, now COc1cc(Cn2cc3c(c2)-c2oncc2CC3)cc(OC)c1OC
Response: active

Request: Also need N#Cc1ncc(/N=C/c2ccc(N(CCCl)CCCl)cc2)s1 , thanks.
Response: inactive

Request: // query: Fc1ccc(-c2nc3n(c2-c2ccncc2)CCS3)cc1
Response: inactive

Request: Then this molecule: CCc1ccc(NC(=O)Nc2c[nH]c3ccccc23)cc1
Response: inactive

Request: // same read-out, input: OCC1OC(n2ccc3c2ncn2ncnc32)C(O)C1O (stereo not drawn)
Response: active

Request: // query: O=C1C(Cl)=C(N/N=c2/[nH][nH]/c(=N/NC3=C(Cl)C(=O)c4ccccc4C3=O)c3ccccc23)C(=O)c2ccccc21
Response: inactive

Request: Could you do the same for CCCN(Cc1ccc(F)cc1)c1ccc(CO)c(Cl)c1 , please?
Response: inactive

Request: Here is the next molecule: CCN=C1C=CC(=C(c2ccc(N(C)C)cc2)c2ccc(N(C)C)cc2)c2ccccc21
Response: active

====

# Tested on: NCI-H522 lung
# measurement-protocol: NCI tumour cell line growth inhibition, 48 h; in the data active = GI50 below about 0.43 µM; inactive = the rest
Choose one outcome from this list and give only that: true (1) (active), false (0) (inactive)

Request: Answer briefly: the call reported for CCc1ccc(NCc2cc(OC)c(OC)c(OC)c2)cc1 in this assay.
Response: true (1)

Request: What do we get for CC(=O)[O][Pb]([O]C(C)=O)([c]1ccccc1)[c]1ccccc1 ?
Response: false (0)

Request: What about C=C1C(=O)O[C@@H]2C1CC(=O)C(C)CC/C=C(\C)CCC[C@H](C)[C@H]2OC(C)=O (some centres not stated) ?
Response: false (0)

Request: Same read-out for N#CC(C#N)=Cc1ccc(-c2ccc(-c3nc4ccccc4s3)cc2)o1 ?
Response: false (0)

Request: And the next one, O=C(CCl)c1ccc([N+](=O)[O-])o1 ?
Response: false (0)

Request: CC12CCC(=O)C(O1)C1C(=O)c3cc4ccccc4cc3C(=O)C12 (configuration not stated) ?
Response: false (0)

Request: Another compound: CCOC(=O)Cc1c[nH]c(=S)[nH]c1=O
Response: false (0)

Request: // next record CC12CCC=CC1CCC1C2CCC2(C)C(c3ccc(=O)oc3)CCC12O (configuration not stated)
Response: true (1)

Request: Record: COc1ccc(C(=O)/C=C/c2ccc(Cl)cc2)cc1S(=O)(=O)Nc1c(N)nc(SC)[nH]c1=O
Response: false (0)

Request: Field entry: COc1cc2cc(Oc3ccc(NC(=O)Nc4ccc(Cl)c(C(F)(F)F)c4)cc3)c(C)nc2cc1OCCN1CCCCC1
Response: false (0)

Request: Now the same for C=C(C)[C@@H]1CC[C@]2(C(=O)NCCCN)CC[C@]3(C)[C@H](CC[C@@H]4[C@@]5(C)CC[C@H](O)C(C)(C)[C@@H]5CC[C@]43C)[C@@H]12
Response: false (0)

Request: Note, next up: c1ccc2nc(Cn3c[n+](Cc4ccc5ccccc5n4)c4ccccc43)ccc2c1
Response: false (0)
